# System: CD2F1 mice, L1210 leukemia ip, survival T/C
# measurement_description: NCI In Vivo Anticancer Drug Screen. Data for tumor model L1210 Leukemia (intraperitoneal) in CD2F1 (CDF1) mice
# condition_parameters: endpoint: mean survival time; dose: 200.0 mg/kg/injection; schedule: Q04DX003 (ip); vehicle: saline; higher = longer survival
Toxic doses and inconclusive results are not listed.
recorded_endpoint: T/C

I am curious: what T/C value has been reported for `O=C(O)c1ccc(C(=O)O)c2c(C(=O)O)ccc(C(=O)O)c12` ? 96 % of control

I am curious: what T/C value has been reported for `COc1ccc(N=C(c2ccccc2)c2ccccc2)cc1` ? 101 % of control

I am curious: what T/C value has been reported for CC(=O)C(C)(O)C(C)(C)C (centres undefined) ? 93 % of control

###

# Tested on: CD2F1 mice, L1210 leukemia ip, survival T/C
# measurement_description: NCI In Vivo Anticancer Drug Screen. Data for tumor model L1210 Leukemia (intraperitoneal) in CD2F1 (CDF1) mice
# condition_parameters: endpoint: mean survival time; dose: 50.0 mg/kg/injection; schedule: Q01DX009 (ip); vehicle: saline with Tween-80; higher = longer survival
Toxic doses and inconclusive results are not listed.
recorded_endpoint: T/C

molecule	T/C
CN(C)c1ccc(C(=N)c2ccc(N(C)C)cc2)cc1 (tested in a mixture with another compound)	93 % of control

I am curious: what T/C value has been reported for CCCCCC(=O)C(C)C(C)C (configuration not stated) ? 97 % of control

###

# Tested on: CD2F1 mice, L1210 leukemia ip, survival T/C
# measurement_description: NCI In Vivo Anticancer Drug Screen. Data for tumor model L1210 Leukemia (intraperitoneal) in CD2F1 (CDF1) mice
# condition_parameters: endpoint: mean survival time; dose: 200.0 mg/kg/injection; schedule: Q04DX002 (ip); vehicle: saline with Tween-80; higher = longer survival
Toxic doses and inconclusive results are not listed.
Recorded T/C for the following compounds

Use the examples below as a reference point.
compound	recorded_endpoint	result
CN(C)C(=O)Sc1ccc(S(=O)(=O)F)cc1F	T/C	91 % of control
CCOP(=S)(OCC)N1CC1	T/C	93 % of control

I am curious: what T/C value has been reported for `COC(=O)CC/C=C\Cc1c(OC)c(C)c2c(c1OC=O)C(=O)OC2` ? 108 % of control

I am curious: what T/C value has been reported for O=C1OC(=O)C2C3OC(C4CN=NC43)C12 (stereo not drawn) ? 118 % of control

I am curious: what T/C value has been reported for `C[Si](C)(C)Oc1ccc(OCc2ccccc2)cc1` ? 95 % of control

I am curious: what T/C value has been reported for `Cc1ccccc1NC(=O)Oc1ccc(Cl)cc1C` ? 93 % of control

I am curious: what T/C value has been reported for `N#CCCN=C1C=CC(=C(c2ccc(NCCC#N)cc2)c2ccccc2Cl)C=C1` ? 93 % of control

I am curious: what T/C value has been reported for O=C1C(Cl)=C(c2ccccc2)C(OC2(c3ccccc3)C(Cl)C(=O)C(Cl)C2c2ccccc2)(c2ccccc2)C1Cl (stereo not drawn) ? 101 % of control

I am curious: what T/C value has been reported for `Cc1cccc(NC(=O)COc2cc(Cl)c(Cl)cc2Cl)c1` ? 98 % of control

I am curious: what T/C value has been reported for `CN(CCC#N)c1ccc(C(=C2C=CC(=Nc3ccccc3)c3ccccc32)c2ccc(N(C)CCC#N)cc2)cc1` ? 101 % of control

I am curious: what T/C value has been reported for `Cc1ccc2cccc(CC(=O)O)c2c1` ? 98 % of control

I am curious: what T/C value has been reported for O=C=Nc1ccc(Cl)c(Cl)c1 (tested in a mixture with another compound) ? 93 % of control

I am curious: what T/C value has been reported for CCSCCN1C(=O)C2C3CCC(O3)C2C1=O (stereo not drawn) ? 93 % of control

I am curious: what T/C value has been reported for `O=C(NCc1ccccc1)C(=O)NCc1ccccc1` ? 87 % of control

I am curious: what T/C value has been reported for `Cc1ccccc1NC(=O)Oc1ccc(C(C)(C)C)cc1` ? 86 % of control

I am curious: what T/C value has been reported for `CCOC(=O)c1ccc(NC(=O)Nc2ccc(Cl)cc2Cl)cc1` ? 88 % of control

I am curious: what T/C value has been reported for CN(C)C(=O)C(O)C1CCCCC1 (stereo not drawn) ? 94 % of control

I am curious: what T/C value has been reported for `N#CCCN=C1C=CC(=C(c2ccccc2)c2ccc(NCCC#N)cc2)C=C1` ? 103 % of control

I am curious: what T/C value has been reported for `Cc1cc(OC(=S)N(C)C)c(S(=O)(=O)F)cc1Cl` ? 98 % of control

I am curious: what T/C value has been reported for Nc1nc2c(ncn2-c2cccc(NC(=O)Nc3ccc(S(=O)(=O)F)cc3)c2)c(=O)[nH]1 (tested in a mixture with another compound) ? 105 % of control

I am curious: what T/C value has been reported for `CNC(=S)/N=c1/scc(C)n1C` ? 91 % of control

I am curious: what T/C value has been reported for CC1(C(=O)O)CC2CCC1CC2 (stereo not drawn) ? 100 % of control

I am curious: what T/C value has been reported for `NCc1ccc(-n2cnc3c(=O)[nH]c(N)nc32)cc1` ? 101 % of control
